Tested on: Lepeophtheirus salmonis
run conditions: exposure 15 min, 20 ppm (nitenpyram 19 ppm), culled fish
assay readout: percentage of sea lice that dropped from treated fish at the end of the treatment period (%)
All answers are understood in %, so give the number only.

compound: O=[N+]([O-])NC1=NCCN1Cc1ccc(Cl)nc1
data value: 42.9

IN: System Lepeophtheirus salmonis. Read-out percentage of sea lice that dropped from treated fish at the end of the treatment period. Item CCN(Cc1ccc(Cl)nc1)/C(=C/[N+](=O)[O-])NC . Report value.
OUT: 16.7

IN: System Lepeophtheirus salmonis. Read-out percentage of sea lice that dropped from treated fish at the end of the treatment period. Item CN/C(=N/CC1CCOC1)N[N+](=O)[O-] (centres unmarked) . Report value.
OUT: 0

IN: System Lepeophtheirus salmonis. Read-out percentage of sea lice that dropped from treated fish at the end of the treatment period. Item CN/C(=N\[N+](=O)[O-])NCc1cnc(Cl)s1 . Report value.
OUT: 9.1

IN: System Lepeophtheirus salmonis. Read-out percentage of sea lice that dropped from treated fish at the end of the treatment period. Item CN1COCN(Cc2cnc(Cl)s2)/C1=N\[N+](=O)[O-] . Report value.
OUT: 0

Values were extracted from patent US20210244028A1.
